study_target: Aryl hydrocarbon receptor nuclear translocator/Endothelial PAS domain-containing protein 1 (Homo sapiens)
method_notes: Inhibition of GST-tagged PAS-B domain of HIF-2alpha-Flag-tagged PAS-B domain of ARNT heterodimerization (unknown origin) by luminescence proximity assay
Labelling field: enter 1 (yes) if recorded IC50 is less than 500 nM. Enter 0 (no) if it equals or exceeds that cut-off.

Report whether reported IC50 is lower than 500 nM (strictly) for Nc1nc2ccc(Nc3cc(F)cc(Cl)c3)c([N+](=O)[O-])c2[nH]1
0 (no)

Report whether reported IC50 is lower than 500 nM (strictly) for O=[N+]([O-])c1c(Nc2cccc(F)c2)ccc2nonc12
0 (no)

Report whether reported IC50 is lower than 500 nM (strictly) for O=[N+]([O-])c1c(Nc2cccc(Cl)c2)ccc2nonc12
1 (yes)

Report whether reported IC50 is lower than 500 nM (strictly) for CN(c1cc(F)cc(Cl)c1)c1ccc2nonc2c1[N+](=O)[O-]
0 (no)

Report whether reported IC50 is lower than 500 nM (strictly) for O=[N+]([O-])c1c(NCc2cc(F)ccc2F)ccc2nonc12
0 (no)

* * *

The listing below reports pKd for compounds tested on Endothelial PAS domain-containing protein 1 (Homo sapiens).
Sequence (Q99814 whole entry, the tested form may be a part): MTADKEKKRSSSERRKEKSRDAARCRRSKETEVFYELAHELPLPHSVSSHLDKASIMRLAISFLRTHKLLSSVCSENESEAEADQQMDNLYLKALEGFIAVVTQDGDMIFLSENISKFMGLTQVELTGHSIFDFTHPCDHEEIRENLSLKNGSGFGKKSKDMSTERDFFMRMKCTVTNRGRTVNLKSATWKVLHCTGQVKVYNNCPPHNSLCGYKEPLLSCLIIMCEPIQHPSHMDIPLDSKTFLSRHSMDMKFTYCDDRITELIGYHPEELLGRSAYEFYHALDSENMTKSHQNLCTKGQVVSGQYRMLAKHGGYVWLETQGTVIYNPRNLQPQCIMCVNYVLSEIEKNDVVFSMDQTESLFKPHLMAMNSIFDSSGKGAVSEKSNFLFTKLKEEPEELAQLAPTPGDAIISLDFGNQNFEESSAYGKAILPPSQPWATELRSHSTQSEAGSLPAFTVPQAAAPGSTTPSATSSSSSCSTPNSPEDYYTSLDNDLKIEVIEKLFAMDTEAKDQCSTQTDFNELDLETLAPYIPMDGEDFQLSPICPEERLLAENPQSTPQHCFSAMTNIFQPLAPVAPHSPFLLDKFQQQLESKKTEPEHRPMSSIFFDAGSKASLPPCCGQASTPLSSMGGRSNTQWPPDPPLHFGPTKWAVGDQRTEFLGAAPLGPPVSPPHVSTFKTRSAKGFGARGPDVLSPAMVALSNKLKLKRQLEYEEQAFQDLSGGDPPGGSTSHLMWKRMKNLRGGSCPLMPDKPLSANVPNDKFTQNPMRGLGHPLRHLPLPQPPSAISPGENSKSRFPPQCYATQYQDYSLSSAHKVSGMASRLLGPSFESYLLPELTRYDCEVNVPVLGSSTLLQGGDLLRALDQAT
In simple prose, pKd is minus the logarithm base ten of a concentration in moles per litre.

{"columns": ["chemical_structure", "reported_value"],
 "data": [
  ["O=[N+]([O-])c1c(Nc2cc(F)cc(Cl)c2)ccc2nonc12", 7.05],
  ["O=[N+]([O-])c1cccc(Nc2ccc3nonc3c2[N+](=O)[O-])c1", 5.52],
  ["O=[N+]([O-])c1ccccc1Nc1cc(F)cc(Cl)c1", 5.37],
  ["O=[N+]([O-])c1c(Nc2cccc(F)c2)ccc2nonc12", 5.66],
  ["O=[N+]([O-])c1c(NCc2ccc(F)cc2C(F)(F)F)ccc2nonc12", 6.27]
]}

The reported pKd of the compound Fc1cc(Cl)cc(Nc2ccc3nonc3c2)c1 was 5.52

The reported pKd of the compound O=[N+]([O-])c1c(Nc2ccc(F)c(Cl)c2)ccc2nonc12 was 6.40

The reported pKd of the compound O=[N+]([O-])c1c(Nc2ccc(Cl)c(C(F)(F)F)c2)ccc2nonc12 was 6.77

The reported pKd of the compound Nc1c(Nc2cc(F)cc(Cl)c2)ccc2nonc12 was 5.22

The reported pKd of the compound O=[N+]([O-])c1c(Nc2cc(F)cc(F)c2)ccc2nonc12 was 6.14

* * *

study_target: Aryl hydrocarbon receptor nuclear translocator/Endothelial PAS domain-containing protein 1 (Homo sapiens, UniProt Q99814)
Sequence (P27540 whole entry, the tested form may be a part): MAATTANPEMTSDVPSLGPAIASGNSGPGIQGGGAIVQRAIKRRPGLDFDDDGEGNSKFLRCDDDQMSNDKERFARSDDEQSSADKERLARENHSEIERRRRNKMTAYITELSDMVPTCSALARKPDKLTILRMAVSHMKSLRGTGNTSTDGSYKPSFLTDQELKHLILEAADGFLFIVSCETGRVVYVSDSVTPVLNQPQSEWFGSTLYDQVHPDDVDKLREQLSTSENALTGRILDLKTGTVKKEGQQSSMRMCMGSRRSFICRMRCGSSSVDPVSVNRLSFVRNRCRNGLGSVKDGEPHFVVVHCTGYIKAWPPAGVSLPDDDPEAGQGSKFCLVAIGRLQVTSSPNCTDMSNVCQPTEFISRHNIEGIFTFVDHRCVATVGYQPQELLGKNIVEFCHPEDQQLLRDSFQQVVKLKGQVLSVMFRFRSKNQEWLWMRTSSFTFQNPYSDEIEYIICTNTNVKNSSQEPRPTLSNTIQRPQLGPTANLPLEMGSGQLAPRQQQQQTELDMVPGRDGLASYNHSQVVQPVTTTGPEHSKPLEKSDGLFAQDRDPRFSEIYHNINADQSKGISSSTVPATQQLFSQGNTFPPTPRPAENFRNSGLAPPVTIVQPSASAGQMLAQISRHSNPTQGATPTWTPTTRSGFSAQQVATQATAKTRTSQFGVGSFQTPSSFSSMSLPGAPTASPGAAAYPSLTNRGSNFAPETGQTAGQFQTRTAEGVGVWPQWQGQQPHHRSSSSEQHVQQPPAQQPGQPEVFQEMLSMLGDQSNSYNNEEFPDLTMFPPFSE
Sequence (Q99814 whole entry, the tested form may be a part): as the sequence (Q99814 whole entry, the tested form may be a part) above
method_notes: Inhibition of GST-tagged PAS-B domain of HIF-2alpha-Flag-tagged PAS-B domain of ARNT heterodimerization (unknown origin) by luminescence proximity assay
property_label: pIC50
In simple prose, pIC50 is minus the logarithm base ten of a concentration in moles per litre.

{"columns": ["chemical_structure", "pIC50"],
 "data": [
  ["O=[N+]([O-])c1c(NCc2ccc(F)cc2C(F)(F)F)ccc2nonc12", 6.30],
  ["O=[N+]([O-])c1c(NCc2cc(F)cc(Cl)c2)ccc2nonc12", 5.70],
  ["O=[N+]([O-])c1c(Nc2cccc(Cl)c2F)ccc2nonc12", 6.12]
]}

The reported pIC50 of the molecule O=[N+]([O-])c1c(Nc2cc(F)cc(C(F)(F)F)c2)ccc2nonc12 was 6.37

The reported pIC50 of the molecule O=[N+]([O-])c1c(Nc2cccc(C(F)(F)F)c2)ccc2nonc12 was 6.34

The reported pIC50 of the molecule O=[N+]([O-])c1c(Nc2cc(F)cc(F)c2)ccc2nonc12 was 5.70

The reported pIC50 of the molecule O=[N+]([O-])c1cccc(Nc2ccc3nonc3c2[N+](=O)[O-])c1 was 5.55

The reported pIC50 of the molecule O=[N+]([O-])c1cc(Nc2ccc3nonc3c2[N+](=O)[O-])ccc1Cl was 6.40

* * *

study_target: Aryl hydrocarbon receptor nuclear translocator/Endothelial PAS domain-containing protein 1 (Homo sapiens)
method_notes: Inhibition of GST-tagged PAS-B domain of HIF-2alpha-Flag-tagged PAS-B domain of ARNT heterodimerization (unknown origin) by luminescence proximity assay
Listed compounds paired with reported pIC50
In simple prose, pIC50 is minus the logarithm base ten of a concentration in moles per litre.

Solved entries:
{"columns": ["chemical_structure", "property_label", "reported_value"],
 "data": [
  ["O=[N+]([O-])c1c(NCc2ccc(F)cc2Cl)ccc2nonc12", "pIC50", 6.48],
  ["O=[N+]([O-])c1c(Nc2ccc(Cl)c(C(F)(F)F)c2)ccc2nonc12", "pIC50", 7.05],
  ["O=[N+]([O-])c1c(Nc2ccc(F)c(Cl)c2)ccc2nonc12", "pIC50", 6.77],
  ["O=[N+]([O-])c1c(Nc2cc(F)cc(Cl)c2)ccc2nonc12", "pIC50", 7.00]
]}

Okay, next one:
The reported pIC50 of the compound O=[N+]([O-])c1c(Nc2ccc(Cl)c(Cl)c2)ccc2nonc12 was 6.92

* * *

Listed compounds paired with reported IC50
study_target: Aryl hydrocarbon receptor nuclear translocator/Endothelial PAS domain-containing protein 1 (Homo sapiens)
method_notes: Inhibition of GST-tagged PAS-B domain of HIF-2alpha-Flag-tagged PAS-B domain of ARNT heterodimerization (unknown origin) by luminescence proximity assay

Solved entries:
{"columns": ["chemical_structure", "reported_value"],
 "data": [
  ["O=[N+]([O-])c1c(NCc2ccccc2)ccc2nonc12", "> 5 µM"],
  ["O=[N+]([O-])c1c(Nc2cc(F)cc(Cl)c2)ccc2nn[nH]c12", "> 10 µM"],
  ["Nc1c(Nc2cc(F)cc(Cl)c2)ccc2nonc12", "> 30 µM"]
]}

The reported IC50 of the compound O=[N+]([O-])c1c(Nc2cc(F)cc(Cl)c2)ccc2[nH]cnc12 was < 5 µM
